- assay-system: T1, human IL-2Rβ (human, UniProt P14784 27-240, limits assumed)
- T1 construct: also called hIL-2Rβ; IL-2 receptor beta
- T1 sequence (looked up): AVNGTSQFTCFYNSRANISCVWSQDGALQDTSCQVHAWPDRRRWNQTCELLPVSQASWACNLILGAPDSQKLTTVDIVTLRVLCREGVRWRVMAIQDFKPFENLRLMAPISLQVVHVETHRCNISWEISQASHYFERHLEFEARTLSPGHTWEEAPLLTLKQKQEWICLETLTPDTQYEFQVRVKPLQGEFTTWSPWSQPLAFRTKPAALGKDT
- assay: SPR, steady state
Measured Kd accompanies every entry in the list below.
readout-kind: Kd (nM)

| binder | endpoint-unit | relation-operator | readout-value |
| --- | --- | --- | --- |
| hIL-15 V49R/Q108A (ligand) NWVNVISDLKKIEDLIQSMHIDATLYTESDVHPSCKVTAMKCFLLELQRISLESGDASIHDTVENLIILANNSLSSNGNVTESGCKECEELEEKNIKEFLQSFVHIVAMFINTGGGGSGHHHHHHHHGGGLNDIFEAQKIEWHE | nM | = | 462 |
| hIL-15 V49R/H32D (ligand) NWVNVISDLKKIEDLIQSMHIDATLYTESDVDPSCKVTAMKCFLLELQRISLESGDASIHDTVENLIILANNSLSSNGNVTESGCKECEELEEKNIKEFLQSFVHIVQMFINTGGGGSGHHHHHHHHGGGLNDIFEAQKIEWHE | nM | = | 123 |
| hIL-15 V49R/L69T (ligand) NWVNVISDLKKIEDLIQSMHIDATLYTESDVHPSCKVTAMKCFLLELQRISLESGDASIHDTVENLIITANNSLSSNGNVTESGCKECEELEEKNIKEFLQSFVHIVQMFINTGGGGSGHHHHHHHHGGGLNDIFEAQKIEWHE | nM | > | 1000 |
| hIL-15 V49R/S7E (ligand) NWVNVIEDLKKIEDLIQSMHIDATLYTESDVHPSCKVTAMKCFLLELQRISLESGDASIHDTVENLIILANNSLSSNGNVTESGCKECEELEEKNIKEFLQSFVHIVQMFINTGGGGSGHHHHHHHHGGGLNDIFEAQKIEWHE | nM | > | 500 |
